Values from patent US20190071499A1

# target of assay: T1, g1mIFN-α1 (mouse, UniProt P01572 24-189)
# T1 construct: also called murine IFN-α1 (Gaussia luciferase fusion); not shown: Gaussia luciferase fusion partner
# T1 sequence (looked up): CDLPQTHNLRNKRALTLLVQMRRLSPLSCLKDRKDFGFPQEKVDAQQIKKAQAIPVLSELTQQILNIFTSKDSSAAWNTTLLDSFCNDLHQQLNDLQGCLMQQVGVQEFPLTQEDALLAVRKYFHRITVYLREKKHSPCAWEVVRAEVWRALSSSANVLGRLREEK
# method description: LIPS
property name: binding result

binder	experimental result
13B11 (antibody, human IgG1, kappa, V domains shown, human-derived IgG1, kappa; also called MAB 13B11; hMAB 13B11) VH: DVQLLQSGGGLIQPGGSLRLSCAASGFTFKDYAMSWVRQAPGKGLEWVSVISRSGNIVDYVDSVKGRFTVSRDNSNNTLFLQMDGLRADDTAIYYCAKPKDMIVVVPAGFDSWGQGTLVSVSS VL: DIQMTQFPSTLSASVGDSVTITCRASQSISAWLAWYQQKPGKAPKLLIYKGSRLENGVPSRFSGSGSGTEFTLTIGSLQPDDFATYYCQQYKTWTFGQGTKVEIKR	no binding
25C3 (antibody, human IgG1, kappa, V domains shown, human-derived IgG1, kappa; also called MAB 25C3; hMAB 25C3) VH: EMQLMESGGGLVQPGGSLRLSCVASGFTFKSFAMSWVRQAPGKGLEWVASVGSQGGSKYYAPSVKGRFSISRDNSNNTLYVQMNSLGVEDTAFYYCVKETDAVATMDALDMWGQGTLVIVST VL: DIRVTQSPSSLSASVGDRVSISCQTSQSVNIYLNWYQQRPGKGPQLLISAASTLQSGVPSRFSGSGSGTDFILTIISLQPEDSASYYCQQGYITPYTFGQGTKVEIKR	no binding
26B9 (antibody, human IgG1, kappa, V domains shown, human-derived IgG1, kappa; also called MAB 26B9; hMAB 26B9) VH: QILLQESGPGLVKPTETLSLTCSVSGDSISDSSHYWAWIRQPPGKGPEWIGSVYFSSMTHYNPSLKSRVSISVDKPKNQFSLKVTSVTVADTATYYCARQALARVGAMNWFDPWGQGSLVTVSS VL: DIIMTQSPDSLPVSLGEGVTINCKSSQSVFFTSSNKSCLAWYQQKPGKSPKLLIYWASTRQSGVPDRFRGSGSGTDFSLTITSLQAEDVAVYFCQQCQTSPPTFGGGTRLEIKR	no binding
